- TARGET_OR_SYSTEM: UniProt:Q2NNR5
- Sequence (Q2NNR5 whole entry): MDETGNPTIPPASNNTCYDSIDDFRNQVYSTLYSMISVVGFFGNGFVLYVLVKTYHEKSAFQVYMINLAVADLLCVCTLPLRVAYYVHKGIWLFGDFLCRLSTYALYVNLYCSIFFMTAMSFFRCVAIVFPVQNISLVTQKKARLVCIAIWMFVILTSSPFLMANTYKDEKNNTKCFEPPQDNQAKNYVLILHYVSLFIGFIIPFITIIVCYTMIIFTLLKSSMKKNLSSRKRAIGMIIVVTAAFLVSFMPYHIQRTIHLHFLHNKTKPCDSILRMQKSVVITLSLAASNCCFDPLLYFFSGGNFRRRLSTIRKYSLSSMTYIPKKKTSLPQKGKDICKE
- PROTOCOL_SUMMARY: Inhibitory activity against binding of [3H]LTD4 to Cysteinyl leukotriene D4 receptor in guinea pig lung membranes
// classify: if (IC50 < 3 nM) class 1 else class 0

Recorded results for 4 compounds are shown here.
- CHEMICAL_STRING: "C[C@H](CS[C@@H](CCc1ccccc1C=O)c1cccc(/C=C/c2ccc3ccc(Cl)cc3n2)c1)C(=O)O"
  ANSWER_LABEL: "class 1"
- CHEMICAL_STRING: "C[C@H](CS[C@@H](CCc1ccccc1CC(C)(C)O)c1cccc(/C=C/c2ccc3ccc(Cl)cc3n2)c1)C(=O)O"
  ANSWER_LABEL: "class 1"
- CHEMICAL_STRING: "COC(=O)c1cccc(CC[C@H](SC[C@@H](C)C(=O)O)c2cccc(/C=C/c3ccc4ccc(Cl)cc4n3)c2)c1"
  ANSWER_LABEL: "class 0"
- CHEMICAL_STRING: "C[C@H](CS[C@@H](CCc1cccc(CO)c1)c1cccc(/C=C/c2ccc3ccc(Cl)cc3n2)c1)C(=O)O"
  ANSWER_LABEL: "class 1"

IC50 strictly < 3 nM for this compound? CCC(=O)c1ccccc1CC[C@H](SC[C@@H](C)C(=O)O)c1cccc(/C=C/c2ccc3ccc(Cl)cc3n2)c1
class 0

IC50 strictly < 3 nM for this compound? C[C@H](CS[C@@H](CCc1ccccc1CO)c1cccc(/C=C/c2ccc3ccc(Cl)cc3n2)c1)C(=O)O
class 0

IC50 strictly < 3 nM for this compound? C[C@H](CS[C@@H](CCc1ccccc1C(=O)c1ccccc1)c1cccc(/C=C/c2ccc3ccc(Cl)cc3n2)c1)C(=O)O
class 0

IC50 strictly < 3 nM for this compound? CCOC(=O)c1ccccc1CC[C@H](SC[C@@H](C)C(=O)O)c1cccc(/C=C/c2ccc3ccc(Cl)cc3n2)c1
class 0

IC50 strictly < 3 nM for this compound? CC(=O)c1cccc(CC[C@H](SC[C@@H](C)C(=O)O)c2cccc(/C=C/c3ccc4ccc(Cl)cc4n3)c2)c1
class 0

IC50 strictly < 3 nM for this compound? C[C@H](CS[C@@H](CCc1ccccc1C(C)(C)O)c1cccc(/C=C/c2ccc3ccc(Cl)cc3n2)c1)C(=O)O
class 1
